Values were extracted from ChEMBL document CHEMBL2150926.

Quick record: IC50, Protein kinase C theta type (Homo sapiens).
measured_metric: IC50 (nM)

[I] Cc1cccc2nc(N3CCN(C)CC3)nc(C3=C(c4c[nH]c5ccccc45)C(=O)NC3=O)c12
[II] Cc1[nH]c2ccccc2c1C1=C(c2nc(N3CCN(C)CC3)nc3ccccc23)C(=O)NC1=O
[III] CN1CCN(c2nc(C3=C(c4cn(C)c5ccccc45)C(=O)NC3=O)c3ccccc3n2)CC1
Input: Ranking criterion: IC50, increasing numeric value. Items: as listed above. List the labels in the requested order.
Output: I, III, II
(I: 2.9 nM, III: 5.8 nM, II: 26 nM)

###

experiment: Lipophilicity, log D of the compound at pH 6.8; format: physicochemical; details: buffer
measured_metric: logD

[A] Cn1cc(C2=C(c3nc(N4CCNCC4)nc4ccccc34)C(=O)NC2=O)c2ccccc21
[B] CN1CCN(c2nc(C3=C(c4c[nH]c5ccccc45)C(=O)NC3=O)c3ccccc3n2)CC1
Input: Hi! Which is lower in terms of logD, the first one A or the second one B ? API: response body contains the label of the selected item.
Output: A
